Where these numbers come from: paper PMC9657321

# testSummary: Cytotoxicity in mock-infected MT-4 cells, MTT method
# Format: cell-based
# statedConditions: human; mock-infected MT-4 cells, MTT method; read-out: CC50
Field: CC50 at 5 days. Provide a value for each of the compounds that follow.

compound="Cc1ccnc2c1NC(=O)c1cccnc1N2C1CC1 [NVP, nevirapine, reference compound]" result="> 15 µM"

Kindly consider the entry below.
Recorded result, O=C1Nc2ccc(Cl)cc2[C@@](C#CC2CC2)(C(F)(F)F)O1 [EFV, efavirenz, reference compound] , CC50 at 5 days: > 6.35 µM

###

Exercise: state measured IC50 for each of the molecules provided.
# assayTarget: recombinant wild-type HIV-1 RT enzyme (Human immunodeficiency virus type 1 group M subtype B, UniProt P03366)
# Construct: recombinant wild-type HIV-1 RT enzyme
# testSummary: HIV-1 RT inhibition assay (ELISA, Roche RT assay kit)

Below are worked cases with known answers.
molecule="Cc1cc(/C=C/C#N)cc(C)c1Oc1nc(Nc2ccc(B3OC(C)(C)C(C)(C)O3)cc2)nc2ccsc12 [Compound 4a]" readoutkind=IC50 result="167 nM"
molecule="Cc1cc(/C=C/C#N)cc(C)c1Oc1nc(Nc2ccc(B3OC(C)(C)C(C)(C)O3)cc2)nc2c1COC2 [Compound 4c]" readoutkind=IC50 result="200 nM"
molecule="Cc1cc(C#N)cc(C)c1Oc1nc(Nc2ccc(B3OC(C)(C)C(C)(C)O3)cc2)nc2c1COC2 [Compound 3c]" readoutkind=IC50 result="228 nM"
molecule="Cc1cc(C#N)cc(C)c1Oc1nc(Nc2ccc(B3OC(C)(C)C(C)(C)O3)cc2)nc2ccsc12 [Compound 3a]" readoutkind=IC50 result="354 nM"

# input for lookup
Documented IC50 of Cc1cc(/C=C/C#N)cc(C)c1Oc1nc(Nc2ccc(B3OC(C)(C)C(C)(C)O3)cc2)nc2sccc12 [Compound 4b] : 47 nM

###

# Test system: HIV-1 L100I mutant strain
# testSummary: microbe, parasite or virus in culture
# Type: cell-based
# statedConditions: ratio EC50 (resistant viral strain)/EC50 (wild-type viral strain), L100I
Label 1.0 when RF L100I < 40; otherwise 0.0.

The examples below pair each entry with its known result.
compound=Cc1cc(/C=C/C#N)cc(C)c1Oc1nc(Nc2ccc(B3OC(C)(C)C(C)(C)O3)cc2)nc2sccc12 discretelabel=1.0
compound=Cc1cc(C#N)cc(C)c1Oc1nc(Nc2ccc(B3OC(C)(C)C(C)(C)O3)cc2)nc2c1COC2 discretelabel=0.0
compound="Cc1ccnc2c1NC(=O)c1cccnc1N2C1CC1 [NVP, nevirapine, reference compound]" discretelabel=1.0

Continue with the compound presented below.
Q: State whether 40 exceeds RF L100I recorded for Cc1cc(/C=C/C#N)cc(C)c1Oc1nc(Nc2ccc(B3OC(C)(C)C(C)(C)O3)cc2)nc2ccsc12 .
Ans: 1.0
